ASSAYED_SYSTEM: E. coli iPGM (Escherichia coli, UniProt P37689)
Sequence (P37689 whole entry, looked up): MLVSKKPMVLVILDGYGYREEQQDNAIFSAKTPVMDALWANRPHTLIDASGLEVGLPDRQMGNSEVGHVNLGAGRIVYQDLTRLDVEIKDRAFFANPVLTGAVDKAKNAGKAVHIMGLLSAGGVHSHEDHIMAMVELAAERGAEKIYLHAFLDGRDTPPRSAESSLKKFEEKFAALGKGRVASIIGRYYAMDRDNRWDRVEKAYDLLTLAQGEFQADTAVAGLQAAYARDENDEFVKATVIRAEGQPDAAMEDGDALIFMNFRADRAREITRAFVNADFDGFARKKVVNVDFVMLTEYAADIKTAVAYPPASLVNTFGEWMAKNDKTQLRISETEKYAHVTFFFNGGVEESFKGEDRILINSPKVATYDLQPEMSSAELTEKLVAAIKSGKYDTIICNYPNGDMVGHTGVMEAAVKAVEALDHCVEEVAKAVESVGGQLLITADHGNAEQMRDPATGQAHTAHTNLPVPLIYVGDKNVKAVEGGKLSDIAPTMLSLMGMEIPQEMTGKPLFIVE
PROCEDURE_SUMMARY: biochemical
CONDITION_DETAILS: pIC50, apparent E. coli iPGM
OBSERVATION_TYPE: IC50 (nM)
Dear colleague, please return just the value in nM, with no unit written.

# IC50 (compound: `CC(C)C[C@H](NC(=O)[C@H](Cc1ccc(O)cc1)NC(=O)[C@@H]1CSCC(=O)N[C@H](Cc2ccc(O)cc2)C(=O)N[C@@H](CC(=O)O)C(=O)N[C@@H](Cc2ccc(O)cc2)C(=O)N2CCC[C@H]2C(=O)NCC(=O)N[C@@H](CC(=O)O)C(=O)N[C@@H](Cc2ccc(O)cc2)C(=O)N1)C(=O)N[C@@H](Cc1ccc(O)cc1)C(=O)NCC(=O)N[C@H](C(=O)N[C@@H](CS)C(=O)NCC(N)=O)[C@@H](C)O` ) is 1.66

* * *

ASSAYED_SYSTEM: O. volvulus iPGM (Onchocerca volvulus)
PROCEDURE_SUMMARY: biochemical
CONDITION_DETAILS: pIC50, M O. volvulus iPGM
OBSERVATION_TYPE: pIC50
Recall that pIC50 is obtained by taking minus log10 of the concentration measured in molar.

The compound `CC(C)C[C@H](NC(=O)[C@H](Cc1ccc(O)cc1)NC(=O)[C@@H]1CSCC(=O)N[C@H](Cc2ccc(O)cc2)C(=O)N[C@@H](CC(=O)O)C(=O)N[C@@H](Cc2ccc(O)cc2)C(=O)N2CCC[C@H]2C(=O)NCC(=O)N[C@@H](CC(=O)O)C(=O)N[C@@H](Cc2ccc(O)cc2)C(=O)N1)C(=O)N[C@@H](Cc1ccc(O)cc1)C(=O)NCC(=O)N[C@H](C(=O)N[C@@H](CS)C(N)=O)[C@@H](C)O` on O. volvulus iPGM (Onchocerca volvulus): pIC50 was 7.31

* * *

ASSAYED_SYSTEM: O. volvulus iPGM (Onchocerca volvulus, UniProt I6LDA6)
Sequence (I6LDA6 whole entry, looked up): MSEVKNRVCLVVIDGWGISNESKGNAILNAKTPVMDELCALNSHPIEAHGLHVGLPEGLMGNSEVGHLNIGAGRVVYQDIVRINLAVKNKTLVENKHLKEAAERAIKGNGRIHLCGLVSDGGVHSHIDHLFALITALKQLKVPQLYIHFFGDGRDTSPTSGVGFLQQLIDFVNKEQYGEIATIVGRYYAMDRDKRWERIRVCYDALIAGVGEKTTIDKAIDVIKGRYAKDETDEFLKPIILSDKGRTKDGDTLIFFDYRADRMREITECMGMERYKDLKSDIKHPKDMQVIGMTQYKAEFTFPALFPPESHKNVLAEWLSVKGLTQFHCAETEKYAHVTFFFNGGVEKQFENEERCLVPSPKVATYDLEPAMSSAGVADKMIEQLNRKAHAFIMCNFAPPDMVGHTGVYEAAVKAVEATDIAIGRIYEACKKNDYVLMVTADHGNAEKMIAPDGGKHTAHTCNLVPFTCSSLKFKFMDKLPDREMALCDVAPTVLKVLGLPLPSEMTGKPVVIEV
PROCEDURE_SUMMARY: biochemical
CONDITION_DETAILS: pIC50, M O. volvulus iPGM
Positions of bridges follow the written chain, without caps; N, C: chain ends. Residues, ends and D or L forms follow the SMILES beside them.
Entries annotated with measured pIC50
Recall that pIC50 is obtained by taking minus log10 of the concentration measured in molar.

CC[C@H](C)[C@@H]1NC(=O)[C@H](CCCNC(=N)N)NC(=O)[C@H](Cc2ccccc2)NC(=O)[C@@H]2CCCN2C(=O)[C@H](CC(N)=O)NC(=O)[C@H](C)NC(=O)[C@H](CC(C)C)NC(=O)[C@H]([C@@H](C)O)NC(=O)[C@H]([C@@H](C)O)NC(=O)[C@H](Cc2ccc(O)cc2)NC(=O)CSC[C@@H](C(=O)NCC(N)=O)NC(=O)[C@H](Cc2c[nH]cn2)NC(=O)[C@H](CC(C)C)NC1=O [Ce-4] ({CH2CO}-YTTLANPFRILHCG-NH2; thioether N-13) :: 5.37
CC(C)C[C@H](NC(=O)[C@H](Cc1ccc(O)cc1)NC(=O)[C@@H]1CSCC(=O)N[C@H](Cc2ccc(O)cc2)C(=O)N[C@@H](CC(=O)O)C(=O)N[C@@H](Cc2ccc(O)cc2)C(=O)N2CCC[C@H]2C(=O)NCC(=O)N[C@@H](CC(=O)O)C(=O)N[C@@H](Cc2ccc(O)cc2)C(=O)N1)C(=O)N[C@@H](Cc1ccc(O)cc1)C(=O)NCC(=O)N[C@H](C(=O)N[C@@H](CO)C(=O)NCC(N)=O)[C@@H](C)O :: 6.35
CC(C)C[C@H](NC(=O)[C@H](Cc1ccc(O)cc1)NC(=O)[C@@H]1CSCC(=O)N[C@H](Cc2ccc(O)cc2)C(=O)N[C@@H](CC(=O)O)C(=O)N[C@@H](Cc2ccc(O)cc2)C(=O)N2CCC[C@H]2C(=O)NCC(=O)N[C@@H](CC(=O)O)C(=O)N[C@@H](Cc2c[nH]cn2)C(=O)N1)C(=O)N[C@@H](Cc1ccc(O)cc1)C(=O)NCC(=O)N[C@H](C(=O)N[C@@H](CS)C(=O)NCC(N)=O)[C@@H](C)O :: 7.61

// below: pIC50 requested for another compound
# pIC50 (compound: CC[C@H](C)[C@@H]1NC(=O)[C@H](CCCNC(=N)N)NC(=O)[C@H](Cc2ccccc2)NC(=O)[C@@H]2CCCN2C(=O)[C@H](CC(N)=O)NC(=O)[C@H](C)NC(=O)[C@H](CC(C)C)NC(=O)[C@H]([C@@H](C)O)NC(=O)[C@H]([C@@H](C)CC)NC(=O)[C@H](Cc2ccc(O)cc2)NC(=O)CSC[C@@H](C(=O)NCC(N)=O)NC(=O)[C@H](Cc2c[nH]cn2)NC(=O)[C@H](CC(C)C)NC1=O [Ce-3] ({CH2CO}-YITLANPFRILHCG-NH2; thioether N-13) ) is 5.26

* * *

ASSAYED_SYSTEM: E. coli iPGM (Escherichia coli, UniProt P37689)
PROCEDURE_SUMMARY: biochemical
CONDITION_DETAILS: pIC50 E. coli iPGM
Positions of bridges follow the written chain, without caps; N, C: chain ends. Non-standard residues stand in square brackets, D forms with d. Residues, ends and D or L forms follow the SMILES beside them.
Entries annotated with measured IC50
Remember to follow the number with its unit.

Example entries begin here.
CC(=O)N[C@H](Cc1ccc(O)cc1)C(=O)N[C@@H](CC(=O)O)C(=O)N[C@@H](Cc1ccc(O)cc1)C(=O)N1CCC[C@H]1C(=O)NCC(=O)N[C@@H](CC(=O)O)C(=O)N[C@@H](Cc1ccc(O)cc1)C(=O)N[C@@H](CO)C(=O)N[C@@H](Cc1ccc(O)cc1)C(=O)N[C@@H](CC(C)C)C(=O)N[C@@H](Cc1ccc(O)cc1)C(=O)NCC(=O)N[C@H](C(=O)N[C@@H](CS)C(=O)NCC(N)=O)[C@@H](C)O [Ce-L2] (Ac-[dY]DYPGDYSYLYGTCG-NH2) :: 1.32 µM
NC(=O)[C@H](Cc1ccc(O)cc1)NC(=O)[C@@H]1CSCC(=O)N[C@H](Cc2ccc(O)cc2)C(=O)N[C@@H](CC(=O)O)C(=O)N[C@@H](Cc2ccc(O)cc2)C(=O)N2CCC[C@H]2C(=O)NCC(=O)N[C@@H](CC(=O)O)C(=O)N[C@@H](Cc2ccc(O)cc2)C(=O)N1 [Ce-2f] ({CH2CO}-[dY]DYPGDYCY-NH2; thioether N-8) :: 25.7 µM

// below: IC50 requested for another molecule
# IC50 (molecule: `CC(C)C[C@H](NC(=O)[C@H](Cc1ccc(O)cc1)NC(=O)[C@@H]1CSCC(=O)N[C@H](Cc2ccc(O)cc2)C(=O)N[C@@H](CC(=O)O)C(=O)N[C@@H](Cc2ccc(O)cc2)C(=O)N2CCC[C@H]2C(=O)NCC(=O)N[C@@H](CC(=O)O)C(=O)N[C@@H](Cc2ccc(O)cc2)C(=O)N1)C(=O)N[C@@H](Cc1ccc(O)cc1)C(=O)NCC(=O)N[C@H](C(=O)N[C@@H](CS)C(N)=O)[C@@H](C)O` ) is 0.000263 µM

* * *

ASSAYED_SYSTEM: E. coli iPGM (Escherichia coli)
PROCEDURE_SUMMARY: biochemical
CONDITION_DETAILS: pIC50, apparent E. coli iPGM
Positions of bridges follow the written chain, without caps; N, C: chain ends. Non-standard residues stand in square brackets, D forms with d. Residues, ends and D or L forms follow the SMILES beside them.
OBSERVATION_TYPE: IC50 (nM)
Dear colleague, please return just the value in nM, with no unit written.

Example entries begin here.
C[C@@H](O)[C@H](NC(=O)[C@H](CO)NC(=O)[C@@H]1CSCC(=O)N[C@H](Cc2ccc(O)cc2)C(=O)N2CCC[C@H]2C(=O)N[C@@H](CCC(=O)O)C(=O)N[C@@H](Cc2c[nH]c3ccccc23)C(=O)N2CCC[C@H]2C(=O)N[C@@H](CC(N)=O)C(=O)N1)C(=O)N[C@@H](CS)C(=O)NCC(N)=O [Bm-6] ({CH2CO}-[dY]PEWPNCSTCG-NH2; thioether N-7) :: 2820
CC[C@H](C)[C@@H]1NC(=O)[C@H](CCC(=O)O)NC(=O)[C@@H]2CCCN2C(=O)[C@H](C)NC(=O)[C@H](CC(N)=O)NC(=O)[C@@H]2CCCN2C(=O)[C@H](Cc2c[nH]c3ccccc23)NC(=O)[C@H](CO)NC(=O)[C@@H](Cc2ccc(O)cc2)NC(=O)CSC[C@@H](C(=O)N[C@@H](CS)C(=O)NCC(N)=O)NC(=O)[C@H](CCCCN)NC(=O)[C@H](Cc2c[nH]c3ccccc23)NC1=O [Bm-1] ({CH2CO}-[dY]SWPNAPEIWKCCG-NH2; thioether N-12) :: 4900

// below: IC50 requested for another molecule
# IC50 (molecule: CC(C)C[C@@H]1NC(=O)[C@@H](Cc2ccc(O)cc2)NC(=O)CSC[C@@H](C(=O)N[C@@H](CO)C(=O)N[C@H](C(=O)N[C@@H](CS)C(=O)NCC(N)=O)[C@@H](C)O)NC(=O)[C@H](CC(N)=O)NC(=O)[C@@H]2CCCN2C(=O)[C@H](Cc2c[nH]c3ccccc23)NC(=O)[C@H](CC(=O)O)NC1=O [Bm-5] ({CH2CO}-[dY]LDWPNCSTCG-NH2; thioether N-7) ) is 2880
